FYI, the data here is from patent US20190194358A1.

# TEST_TARGET: T1, Tumor Necrosis Factor-alpha (UniProt P01375 77-233)
# T1 construct: Immobilised on pipette tips or SPR chips (amine coupling or biotin capture); also called TNF-α; TNF-alpha
# T1 sequence (P01375 77-233 limits assumed): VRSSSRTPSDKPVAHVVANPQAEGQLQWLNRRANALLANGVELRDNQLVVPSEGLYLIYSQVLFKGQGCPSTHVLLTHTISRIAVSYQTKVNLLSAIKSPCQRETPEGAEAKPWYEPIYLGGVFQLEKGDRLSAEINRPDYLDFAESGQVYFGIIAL
# METHOD: SPR; reference TNF1 lead peptide
Hi there, I'd appreciate the recorded Kd Fold-Change Relative to Lead for every entry that follows.
Use fold as the unit, but write only the number.

The binder listed as FERDYLMMPWKFLQSRQGSC [TNF1 P5Y+S11K double mutant] shows Kd Fold-Change Relative to Lead equal to 6.6

The binder listed as FERSYLKMPWSFLQSRQGSC [TNF1 D4S+P5Y+M7K triple mutant] shows Kd Fold-Change Relative to Lead equal to 11

The binder listed as FERSYLMMPWKFLQSRQGSC (also called D4S + P5Y + S1IK (so in the source)) [TNF1 D4S+P5Y+S11K triple mutant] shows Kd Fold-Change Relative to Lead equal to 23

The binder listed as FERYPLMMPWKFLQSRQGSC [TNF1 D4Y+S11K double mutant] shows Kd Fold-Change Relative to Lead equal to 17
